tested on: P388 leukemia ip, CD2F1 mice, survival T/C; experiment: NCI In Vivo Anticancer Drug Screen. Data for tumor model P388 Leukemia (intraperitoneal) in CD2F1 (CDF1) mice; settings: endpoint: median survival time; dose: 12.5 mg/kg/injection; schedule: Q01DX005 (ip); vehicle: saline with Tween-80
Inconclusive results and toxic doses are left out. Rule for the calls: active = survival T/C of 150% or more; inactive = T/C below 125% in these data.
Pick one and only one: YES = active, NO = inactive

Please review the following examples before continuing.
COc1cc(NC(C)CCCNC(C)C)c2ncccc2c1 (stereo unspecified)
NO
CC1CCCN(CC(O)CN2C[C@@H](C)N(CC(O)CN3CCCC(C)C3)[C@H](C)C2)C1 (stereo partly specified)
NO
COc1cc2c(c(NC(C)CCCN=C(N)NC(N)=NC(C)C)c1)NCCC2 (stereo unspecified)
NO

(Q) Just curious, what result did CCOC(=O)C1C2(C(C)=O)C(C)=Nc3c(C#N)cnn3C12C(=O)OCC (stereo unspecified) get here?
(A) NO

(Q) Just curious, what result did COc1c(CBr)c(CBr)c(OC)c2c1C(=O)c1ccccc1C2=O get here?
(A) NO

(Q) Just curious, what result did CCN(CC)CCNc1cc(Nc2ccc([N+](=O)[O-])cc2)ccc1OC get here?
(A) NO

(Q) Just curious, what result did Brc1ccc(-c2cnc3nc4[nH]c5ccccc5c4nn23)cc1 get here?
(A) NO

(Q) Just curious, what result did O=C1C(Cl)=C(n2c3ccccc3c3ccccc32)C(=O)c2ccccc21 get here?
(A) NO
